# Tested on: CAKI-1 renal
# run-description: NCI tumour cell line growth inhibition, 48 h
Catalogue of TGI readings, one per entry.

>  <compound>
CCCCCC/C=C\CCCCCCCCCc1cccc(OC)c1O

>  <TGI>
> 100 µM

$$$$
>  <compound>
C=C(C)C1Cc2cc(C(C)=O)ccc2O1 (configuration not stated)

>  <TGI>
> 100 µM

$$$$
>  <compound>
CN(C)C(=S)/N=C(\N)N(C)C

>  <TGI>
> 100 µM

$$$$
>  <compound>
N#CC(C(=S)Nc1ccccc1)=C1Nc2ccccc2N1

>  <TGI>
> 10 µM

$$$$
>  <compound>
COc1cc(S(=O)(=O)Nc2ccc(-c3csc(/N=C\c4cccc(Oc5ccccc5)c4)n3)cc2)ccc1Cl

>  <TGI>
> 100 µM

$$$$
>  <compound>
CCOC(=O)C1=C(Nc2cccc3ccccc23)OCC1=O

>  <TGI>
> 100 µM

$$$$
>  <compound>
COc1ccccc1C(=O)Nc1ccc(Cl)c(C(=O)OC(C)C)c1

>  <TGI>
> 100 µM

$$$$
>  <compound>
C[C@]12O[C@@]3(C)O[C@@]3(C)[C@]3(C)O[C@]3(C)[C@@]1(C)O2

>  <TGI>
> 100 µM

$$$$
>  <compound>
CCOc1cc2cnc3c4cc(OC)c(OC)cc4ccc3c2cc1OC

>  <TGI>
> 100 µM

$$$$
>  <compound>
C=CCc1cccc(/C(O)=C/C(=O)/C=C/c2ccccc2Cl)c1O

>  <TGI>
> 100 µM

$$$$
>  <compound>
O=C(O)c1ccc2[nH]c(=O)oc2c1

>  <TGI>
> 100 µM

$$$$
>  <compound>
CCN(CC)CCC(CNc1c(C)cnc2cc(Cl)ccc12)c1ccc(Cl)c(Cl)c1 (configuration not stated)

>  <TGI>
11.5 µM

$$$$

----------
# Tested on: HOP-92 NSCLC
# run-description: NCI tumour cell line growth inhibition, 48 h
# if value of TGI reaches 30 µM, tag true (1); if it stays below, tag false (0)

>  <molecule>
CN1CCN(c2ccc(NC(=O)c3cncnc3Nc3ccc4c(ccn4Cc4cccc(F)c4)c3)cc2)CC1

>  <category-label>
false (0)

$$$$
>  <molecule>
C=C(CN(C)C)C(=O)c1ccccc1Cl

>  <category-label>
true (1)

$$$$
>  <molecule>
CCCCCCCCCCCc1cc(=O)c2c(O)cccc2o1

>  <category-label>
true (1)

$$$$
>  <molecule>
O=S(=O)(N1CCCCN(S(=O)(=O)C(F)(F)F)CCCN(S(=O)(=O)C(F)(F)F)CCCCN(S(=O)(=O)C(F)(F)F)CCCN(S(=O)(=O)C(F)(F)F)CCCCN(S(=O)(=O)C(F)(F)F)CCCN(S(=O)(=O)C(F)(F)F)CCCCN(S(=O)(=O)C(F)(F)F)CCC1)C(F)(F)F

>  <category-label>
true (1)

$$$$
>  <molecule>
O=C1/C(=C\c2cccc(Oc3ccccc3)c2)SC(c2ccccc2)N1Cc1ccccc1 (stereo not drawn)

>  <category-label>
true (1)

$$$$
>  <molecule>
COc1ccc(/C=N/C2=NNC(C)(c3ccccc3O)N2C(Cc2c[nH]c3ccccc23)C(=O)O)cc1 (stereo not drawn)

>  <category-label>
false (0)

$$$$
>  <molecule>
C#CCn1c2c(c3ccccc3c1=O)C(=O)c1ccccc1-2

>  <category-label>
true (1)

$$$$
>  <molecule>
O=C1c2ccccc2-c2c1c1ccc3ccccc3c1n2-c1ccccc1

>  <category-label>
true (1)

$$$$

----------
# Tested on: COLO 205 colon
# run-description: NCI tumour cell line growth inhibition, 48 h; in the data active = GI50 below about 0.43 µM; inactive = the rest
Possible outcomes: active, inactive

>  <compound>
N#Cc1cc2c(=S)[nH]c(=S)[nH]c2nc1SCc1ccccc1

>  <category-label>
inactive

$$$$
>  <compound>
Cc1nc2sc(C(=O)Nc3cccc(Cl)c3C)c(N)c2cc1C(O)c1ccccc1 (stereo not given)

>  <category-label>
active

$$$$
>  <compound>
CCOC(=O)CC1C(CNC(=O)NC)OC(n2cnc3c(NC(=O)Nc4ccccc4)ncnc32)C1O[Si](C)(C)C(C)(C)C (stereo not given)

>  <category-label>
inactive

$$$$
>  <compound>
NC(N)=N/N=C/c1c(-c2cccs2)nc2n1CCS2

>  <category-label>
inactive

$$$$
>  <compound>
Cc1cc(O)cc(-c2nn(C)cc2-c2cc(N3CCOCC3)nc(-c3cccnc3)n2)c1

>  <category-label>
inactive

$$$$

----------
# Tested on: OVCAR-8 ovarian
# run-description: NCI tumour cell line growth inhibition, 48 h
observed-property: TGI

>  <molecule>
CCOC1Oc2ccccc2-c2nc(N)ncc21 (stereo not given)

>  <system-tested>
OVCAR-8 ovarian

>  <observed-property>
TGI

>  <observed>
> 100 µM

$$$$
>  <molecule>
C=C(CN(C)C)C(=O)c1ccccc1Cl

>  <system-tested>
OVCAR-8 ovarian

>  <observed-property>
TGI

>  <observed>
45.2 µM

$$$$
>  <molecule>
Fc1c(F)c(F)c(CSc2nc3ccccc3[nH]2)c(F)c1F

>  <system-tested>
OVCAR-8 ovarian

>  <observed-property>
TGI

>  <observed>
> 100 µM

$$$$
>  <molecule>
Cc1c2ccccc2cc2cccc[n+]12

>  <system-tested>
OVCAR-8 ovarian

>  <observed-property>
TGI

>  <observed>
> 100 µM

$$$$
>  <molecule>
CC[C@H](C)C(=O)O[C@H]1C[C@@H](C)C=C2C=C[C@H](C)[C@H](CC[C@@H]3C[C@@H](O)CC(=O)O3)[C@H]21

>  <system-tested>
OVCAR-8 ovarian

>  <observed-property>
TGI

>  <observed>
> 100 µM

$$$$

----------
# Test system: MCF7 breast
# run-description: NCI tumour cell line growth inhibition, 48 h
Catalogue of TGI readings, one per entry.
observed-property: TGI

>  <compound>
O=C1C2CCCCC2C(=O)N1n1c(Cc2ccccc2)n[nH]c1=O (stereo unspecified)

>  <system-tested>
MCF7 breast

>  <observed>
> 100 µM

$$$$
>  <compound>
O=C1NC(=O)C23C(=O)NC(=O)C12C1C=CC3CC1 (stereo unspecified)

>  <system-tested>
MCF7 breast

>  <observed>
> 10 µM

$$$$
>  <compound>
CCOC(=O)c1nc2ccc(C(F)(F)F)cc2nc1NCc1ccc(F)cc1

>  <system-tested>
MCF7 breast

>  <observed>
> 100 µM

$$$$
>  <compound>
CC(C)(C)COS(=O)OCC(C)(C)C

>  <system-tested>
MCF7 breast

>  <observed>
> 100 µM

$$$$
>  <compound>
NC1=CC(=O)C(=O)c2ccccc21

>  <system-tested>
MCF7 breast

>  <observed>
29.8 µM

$$$$
>  <compound>
O=C(O)c1ccc2[nH]c(=O)oc2c1

>  <system-tested>
MCF7 breast

>  <observed>
> 100 µM

$$$$
>  <compound>
COc1ccccc1C(=O)Nc1ccc(Cl)c(C(=O)OC(C)C)c1

>  <system-tested>
MCF7 breast

>  <observed>
> 100 µM

$$$$
>  <compound>
COc1c(OC)c(OC)c2c(=O)c(OC)c(-c3ccc4c(c3)OCO4)oc2c1OC

>  <system-tested>
MCF7 breast

>  <observed>
> 100 µM

$$$$
>  <compound>
COc1ccc(-c2cncn2-c2ccc(-c3nc4cc(OC)c(OC)c(OC)c4s3)cc2)cc1N

>  <system-tested>
MCF7 breast

>  <observed>
> 100 µM

$$$$
>  <compound>
NC(N)=N/N=C/c1c(-c2cccs2)nc2n1CCS2

>  <system-tested>
MCF7 breast

>  <observed>
35.1 µM

$$$$
>  <compound>
CCCC(=O)Nc1cc(/C=C/C(=O)N2CC(CCl)c3c2cc(OC(C)=O)c2[nH]cc(C)c32)n(C)c1 (stereo unspecified)

>  <system-tested>
MCF7 breast

>  <observed>
> 0.0759 µM

$$$$
>  <compound>
CSc1ccc(NC(=O)CCl)cc1

>  <system-tested>
MCF7 breast

>  <observed>
> 10 µM

$$$$
>  <compound>
N#CC(C#N)[C@@H]1CCC=C(Sc2ccccc2)[C@H]1Sc1ccccc1

>  <system-tested>
MCF7 breast

>  <observed>
14.1 µM

$$$$
>  <compound>
COc1ccc(/C=C2/C(=O)N(/C=C3\C(=O)Oc4ccccc4C3=O)C(=NC(C)=O)N2C)cc1OC

>  <system-tested>
MCF7 breast

>  <observed>
> 100 µM

$$$$
>  <compound>
Cc1cc(=O)[nH]c(Sc2ccc([N+](=O)[O-])cc2[N+](=O)[O-])n1

>  <system-tested>
MCF7 breast

>  <observed>
64.2 µM

$$$$
>  <compound>
COc1ccc(OC)c2c1ccc1c(C)c3ccccc3c(C)c12

>  <system-tested>
MCF7 breast

>  <observed>
> 100 µM

$$$$
